Data provenance: paper PMC6152116

target: jack bean urease (Canavalia ensiformis); test: biochemical; settings: Urease Activity IC50 ± SEM, 100 mM urea, pH 8.2, 37 °C
Sequence (P07374 whole entry, looked up): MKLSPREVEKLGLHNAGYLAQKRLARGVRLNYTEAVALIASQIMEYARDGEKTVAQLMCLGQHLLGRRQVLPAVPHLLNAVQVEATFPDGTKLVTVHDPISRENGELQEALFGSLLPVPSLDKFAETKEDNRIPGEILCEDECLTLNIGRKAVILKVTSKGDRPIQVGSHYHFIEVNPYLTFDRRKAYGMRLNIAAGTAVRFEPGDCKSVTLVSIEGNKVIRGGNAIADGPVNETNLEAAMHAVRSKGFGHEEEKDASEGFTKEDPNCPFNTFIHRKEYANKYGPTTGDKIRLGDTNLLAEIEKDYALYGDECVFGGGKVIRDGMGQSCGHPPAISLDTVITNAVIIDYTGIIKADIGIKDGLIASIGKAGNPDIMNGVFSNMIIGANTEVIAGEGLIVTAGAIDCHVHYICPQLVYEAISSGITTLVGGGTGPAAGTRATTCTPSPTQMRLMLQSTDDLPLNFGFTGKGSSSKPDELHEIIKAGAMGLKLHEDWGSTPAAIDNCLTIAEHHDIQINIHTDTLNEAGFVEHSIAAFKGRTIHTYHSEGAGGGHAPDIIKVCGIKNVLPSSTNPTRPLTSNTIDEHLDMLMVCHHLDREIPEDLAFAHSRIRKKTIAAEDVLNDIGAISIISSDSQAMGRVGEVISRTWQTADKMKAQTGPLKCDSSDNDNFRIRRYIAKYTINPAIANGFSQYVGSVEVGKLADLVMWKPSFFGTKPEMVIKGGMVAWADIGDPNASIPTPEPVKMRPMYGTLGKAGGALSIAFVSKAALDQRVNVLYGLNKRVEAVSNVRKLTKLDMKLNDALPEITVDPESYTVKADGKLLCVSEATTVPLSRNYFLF
pIC50: −log10 of the molar value.
Quick rule: pIC50 of at least 7 means T, below that means F.

Cc1cc(C)cc(S(=O)(=O)NC23CC4CC(CC(C4)C2)C3)c1: T

// query Given the entry Cc1ccc(S(=O)(=O)NNC(N)=S)cc1 [Compound 12a, 2-Tosylhydrazine-1-carbothioamide] , answer whether its pIC50 meets or surpasses 7.
// result F

// query Is reported pIC50 greater than or equal to 7 here: Cc1ccc(S(=O)(=O)NC23CC4CC(CC(C4)C2)C3)cc1
// result F

// query Form field: pIC50 at least 7? Entry: O=S(=O)(NC12CC3CC(CC(C3)C1)C2)c1ccc(-c2ccccc2)cc1
// result T
